Entry source: ChEMBL document CHEMBL1132006

- System: Enterococcus faecium
- assayExplanation: In vitro antibacterial activity against Enterococcus faecium 02D31P2 VanTeiEry-R strain
- Format: functional
Item-by-item account of MIC
measuredEndpoint: MIC

| entrySmiles | measuredEndpoint | resultValue |
| --- | --- | --- |
| CO[C@@H]1[C@@H](OC(=O)c2ccc(C)[nH]2)[C@@H](O)[C@H](Oc2ccc3cc(C(=O)O)c(=O)oc3c2C)O[C@H]1C | MIC | > 40 µg/mL |
| CCCc1cc(O[C@@H]2O[C@@H](C)[C@H](OC)[C@@H](OC(=O)c3ccc(C)[nH]3)[C@H]2O)c(C)c2oc(=O)c(C(=O)O)cc12 | MIC | > 40 µg/mL |
| CCCCCCCCCCCCc1cc(O[C@@H]2O[C@@H](C)[C@H](OC)[C@@H](OC(=O)c3ccc(C)[nH]3)[C@H]2O)c(C)c2oc(=O)c(C(=O)O)cc12 | MIC | > 40 µg/mL |
| CO[C@@H]1[C@@H](OC(=O)c2ccc(C)[nH]2)[C@@H](O)[C@H](Oc2cc(Cc3ccccc3)c3cc(C(=O)O)c(=O)oc3c2C)O[C@H]1C | MIC | 20 µg/mL |
| CO[C@@H]1[C@@H](OC(N)=O)[C@@H](O)[C@H](Oc2ccc3c(O)c(NC(=O)c4ccc(O)c(CC=C(C)C)c4)c(=O)oc3c2C)OC1(C)C | MIC | 0.3 µg/mL |
| CO[C@@H]1[C@@H](OC(=O)c2ccc(C)[nH]2)[C@@H](O)[C@H](Oc2ccc3c(C)c(CCC(=O)O)c(=O)oc3c2C)O[C@H]1C | MIC | > 40 µg/mL |
